target: Luciferin 4-monooxygenase (Photinus pyralis) (UniProt P08659); test: firefly luciferase enzyme inhibitors, primary screen, biochemical, luminescence, purified enzyme, 2006 set (AID 1141); conditions: SteadyGlo luminescence, 30 min, higher = more signal, called active from +8 up or from −8 down;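 further: cell-free assay with purified firefly luciferase at 100 ng per well in PBS; test concentration not given here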
Sequence (P08659 whole entry, looked up): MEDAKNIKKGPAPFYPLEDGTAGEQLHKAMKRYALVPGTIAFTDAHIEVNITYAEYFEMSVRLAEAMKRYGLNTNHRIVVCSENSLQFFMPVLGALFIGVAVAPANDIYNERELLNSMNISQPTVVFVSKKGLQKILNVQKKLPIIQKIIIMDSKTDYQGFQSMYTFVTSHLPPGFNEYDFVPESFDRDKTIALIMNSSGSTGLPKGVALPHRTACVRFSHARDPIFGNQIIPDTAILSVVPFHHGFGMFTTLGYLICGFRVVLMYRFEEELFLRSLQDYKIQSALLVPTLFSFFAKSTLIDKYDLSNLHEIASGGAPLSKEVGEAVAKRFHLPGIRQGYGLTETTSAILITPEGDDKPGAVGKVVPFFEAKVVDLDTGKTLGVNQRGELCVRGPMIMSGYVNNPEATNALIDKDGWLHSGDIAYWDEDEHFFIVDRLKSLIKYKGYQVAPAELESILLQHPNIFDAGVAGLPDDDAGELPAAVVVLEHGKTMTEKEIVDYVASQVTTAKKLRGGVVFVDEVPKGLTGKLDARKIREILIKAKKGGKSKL
TRUE means recorded z-score is -0.8 or above; FALSE means it is below -0.8.

>  <compound>
COC(=O)c1c(CC[C@@H](CO)NC(=O)N[C@@H](Cc2ccccc2)Cn2cc(C3(O)CCCCC3)nn2)oc(C(C)=O)c1C(=O)OC

>  <group_label>
TRUE

$$$$
>  <compound>
CC(C)C[C@@H]1NC(=O)[C@H]2C[C@@H](C(=O)NCCCCCCNC(=O)CS)[C@@H](c3cccc(OCCO)c3)N2C1=O

>  <group_label>
FALSE

$$$$
>  <compound>
COc1ccc(C#Cc2ccc3c(c2)[C@]2(C(=O)N3)[C@H](C(=O)NC[C@H](O)c3ccccc3)[C@H]3C(=O)O[C@H](c4ccccc4)[C@H](c4ccccc4)N3[C@@H]2c2ccc(OCCO)cc2)cc1

>  <group_label>
FALSE

$$$$
>  <compound>
O=C1N(CCS(=O)(=O)c2ccccc2)Cc2ccccc2C[C@]12N=C(c1ccc(OCCCO)cc1)O[C@@H]2c1ccccc1

>  <group_label>
FALSE

$$$$
>  <compound>
COC(=O)[C@@]1(Cc2ccc(OC)cc2)[C@H]2c3cc(C(=O)N4CCCC4)n(Cc4cc(F)cc5c4OCOC5)c3C[C@H]2CN1C(=O)c1ccccc1

>  <group_label>
TRUE

$$$$

Q: Could you please find out whether COCCOC(=O)N1C(=O)[C@@]2(c3cc(C#CCCO)ccc31)[C@H](C(=O)NC[C@H](O)c1ccccc1)[C@H]1C(=O)O[C@H](c3ccccc3)[C@H](c3ccccc3)N1[C@@H]2c1ccc(O)cc1 has z-score that meets -0.8 or exceeds it?
Result: TRUE

Q: # repeat for COc1ccc(C(=O)Nc2cccc(CN3C(=O)[C@]4(O[C@H](CC(=O)N5CCC[C@H]5CO)[C@@H]([Si](C)(C)c5ccc(OC)cc5)[C@@H]4C)c4ccccc43)c2)cc1
Result: FALSE

Q: # repeat for CCOC(=O)C1=CCC(c2ccc([N+](=O)[O-])cc2)N(S(=O)(=O)c2ccc(C)cc2)C1 (stereo unspecified)
Result: TRUE

Q: # repeat for CN(C)C(=O)[C@]1(CCC(=O)OC(C)(C)C)N=C(c2ccc(OCCCO)cc2)O[C@@H]1c1ccccc1N=[N+]=[N-]
Result: FALSE

Q: # repeat for COc1ccc([Si](C)(C)[C@@H]2[C@@H](CCn3cc([C@H](O)c4ccccc4)nn3)O[C@]3(C(=O)N(Cc4ccc(N5C(=O)c6cccc7cccc5c67)cc4)c4ccccc43)[C@H]2C)cc1
Result: TRUE

Q: # repeat for CC(C)c1ccc(NN2C(C(O)c3c(F)cccc3Cl)C=CC3C(=O)N(c4ccccc4)C(=O)C32)cc1 (stereo unspecified)
Result: FALSE

Q: # repeat for C=CC(=C)C1=CCO[C@@H]1[C@H]1CCCN1S(=O)(=O)c1ccccc1[N+](=O)[O-]
Result: TRUE

Q: # repeat for CC1CC/C=C\[C@H]2OC34C=CCN(Cc5ccccc5)C(=O)[C@H]3N(CCCCCO)C(=O)[C@@H]4C2C(=O)O1 (stereo partly specified)
Result: TRUE
